experimental_details: Solubility and solution pressure of blowing agents in polystyrene resin, calculated with the Flory-Huggins equation
Format: physicochemical
assay_context: polystyrene resin, 100°C, atmospheric pressure (14.7 psia, 1 bar)
property_measured: WT% Blowing Agent Dissolves in Resin (WT%)

{"compound": "FC(F)C(F)F", "WT% Blowing Agent Dissolves in Resin / WT%": 0.4}

[A] FCC(F)(F)F [HFC-134a, 1,1,1,2-tetrafluoroethane]
[B] CC(F)(F)F [HFC-143a, 1,1,1-trifluoroethane]
[C] CC(F)F [HFC-152a, 1,1-difluoroethane]
Ordering: ascending WT% Blowing Agent Dissolves in Resin. Give me the labels in the order the question wants.
B, A, C
(B: 0.13 WT%, A: 0.19 WT%, C: 0.4 WT%)
